# Assay text: chemical genetic growth profiling, strain panel (AID 1159580);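 further: tested at 20 µM; growth read once vehicle control cultures reached saturation at 30 °C; 1 = growth at the plate median or of vehicle wells; lower values mean less growth of the strain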
# Particulars: S. cerevisiae deletion strains, growth OD, locus YBL061C, strain skt5, stronger effect = lower value
The whole screen tested about 5,500 compounds, of which about 2,000 (36%) were called active. About 18% were inconclusive and are not listed. This is one part of the list.
Attribute measured: normalized growth

* CCCCCCCCCCCCCCCC(=O)OC1C(SC)OC(C(NC(=O)C2CC(CCC)CN2C)C(C)Cl)C(O)C1O (stereo unspecified) | 0.963
* O=C(C1CCCCC1)N1CC(=O)N2CCc3ccccc3C2C1 (stereo unspecified) | 1.01
* O=c1cc(-c2ccccc2O)oc2cc(O)ccc12 | 0.976
* O=C(O)CN1C(=O)c2cccc3cccc(c23)C1=O | 0.973
* COC(=O)C(O)c1ccccc1 (stereo unspecified) | 0.996
* O=C(O)CN(CC(=O)O)Cc1cc2c(-c3ccccc3C(=O)O)c3cc(CN(CC(=O)O)CC(=O)O)c(=O)cc-3oc2cc1O | 0.965
* CC1(C)O[C@H]2[C@H](O)C[C@](O)(C(N)=O)C[C@H]2O1 | 1.01
* CC(=O)N[C@@H](CS)C(=O)O | 1.01
* COC(=O)C(C)c1ccc(C(=O)c2cccs2)cc1 (stereo unspecified) | 1.01
* CN1C(C(=O)Nc2ccccn2)=C(O)c2ccccc2S1(=O)=O | 0.966
* CC(C(=O)O)c1ccc(C(=O)c2cccs2)cc1 (stereo unspecified) | 1

---

Let's look at some molecules and their measured normalized growth.
# Assay text: chemical genetic growth profiling, strain panel (AID 1159580);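 further: tested at 20 µM; growth read once vehicle control cultures reached saturation at 30 °C; 1 = growth at the plate median or of vehicle wells; lower values mean less growth of the strain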
# Particulars: S. cerevisiae deletion strains, growth OD, locus YBL061C, strain skt5, stronger effect = lower value
Counter-ions that a name gives are not always drawn. Hit rate of the full screen: of about 5,500 compounds, about 2,000 (36%) were called active. Inconclusive results (about 18%) are left out. The list shows a part of the results. Where a SMILES comes first, the peptide text is derived from it. The star is where a group is joined. Tfa = O=C(C(F)(F)F)*
Attribute measured: normalized growth

- CC(C)NC[C@H](O)COc1cccc2ccccc12: 0.984
- CC(C)C(NC(=O)C(Cc1ccc(O)cc1)NC(=O)C(NC(=O)C(F)(F)F)C(C)C)C(=O)O (stereo not drawn) (Tfa-Val-Tyr-Val-OH; configuration not given here): 0.984
- CCCCNc1ccc(C(=O)OCCN(C)C)cc1: 1.02
- CC(C)NCC(O)COc1cccc2ccccc12 (stereo not drawn): 1.01
- C=C1CCC(C2CC(=O)OC2=O)C(=O)CCC2C1CC2(C)C (stereo not drawn): 1
- CC1=CC2C(CC1=O)C(C)=CCC2C(C)C (stereo not drawn): 1.02
- COc1c(OC)c2occc2c2oc(=O)ccc12: 0.979
- CCCCN(CCCC)CCCOC(=O)c1ccc(N)cc1: 0.986
- NC(=O)c1cccc(N)c1: 0.977
- Cc1cccc(C)c1NC1=NCCCS1: 1
- CCCCC(=O)Oc1ccccc1C(=O)O: 0.982
- O=C(Cn1ccnc1[N+](=O)[O-])NCCO: 1.03
- CC[N+](CC)(CC)CCOc1cccc(OCC[N+](CC)(CC)CC)c1OCC[N+](CC)(CC)CC: 1.02

---

The following molecules are listed with their measured normalized growth values.
# Assay text: chemical genetic growth profiling, strain panel (AID 1159580);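 further: tested at 20 µM; growth read once vehicle control cultures reached saturation at 30 °C; 1 = growth at the plate median or of vehicle wells; lower values mean less growth of the strain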
# Particulars: S. cerevisiae deletion strains, growth OD, locus YPL055C, strain LGE1, stronger effect = lower value
In all, about 5,500 compounds went through this assay and about 2,000 (36%) were called active. Another 18% or so got no clear call; they are omitted. The list shows a part of the results.
Attribute measured: normalized growth

- CCCC(=O)O[C@]1(C(=O)CO)CCC2[C@@H]3CCC4=CC(=O)CC[C@]4(C)C3[C@@H](O)C[C@@]21C (stereo partly drawn): 1.04
- C[N+]1(C)C2CC(OC(=O)[C@@H](CO)c3ccccc3)CC1C1OC12 (stereo partly drawn): 1.05
- CCN(CC)C(=O)c1cccc(C)c1: 0.951
- O=C1NC(=O)C(=O)C(=O)N1: 1.04
- COC(=O)c1sccc1-c1ccc(C(C)=O)o1: 0.974
- CCCCN(CCCC)CCCOC(=O)c1ccc(N)cc1: 0.986
- CC(=O)c1ccc(-c2cccs2)s1: 0.9
- Cc1onc(-c2c(F)cccc2Cl)c1C(=O)c1ccc(F)cc1: 0.929
- CC1C[C@H]2CC(=O)[C@H]3CCCN4CCC[C@H]2[C@]34C1 (stereo partly drawn): 1.03
- CC(C(O)c1ccc(O)cc1)N1CCC(Cc2ccccc2)CC1 (stereo not drawn): 0.75
- CCCCN1CCCCC1C(=O)Nc1c(C)cccc1C (stereo not drawn): 1.03
- Clc1ccc(C2=CSC3=NCCCN23)cc1: 1.03
- CO[C@@]1(NC(=O)CSCC#N)C(=O)N2C(C(=O)O)=C(CSc3nnnn3C)CSC21 (stereo partly drawn): 1.05
- CC1=CC2C(CC1=O)C(C)=CCC2C(C)C (stereo not drawn): 0.938
- C=C1C(C)C2C(Cc3ccccc3)NC(=O)C23OC(=O)/C=C/C(O)CCCC(C)C/C=C/C3C1O (stereo not drawn): 1.03
- CC1CNCCN1S(=O)(=O)c1cccc2cnccc12 (stereo not drawn): 1.01
- CCN(CC)CCNC(=O)c1c(-c2c(Cl)cccc2Cl)noc1C: 0.99
- CCCN(CCC)C1CCc2cccc(O)c2C1 (stereo not drawn): 1
- C[N+]1(C)C2CC(OC(=O)C(CO)c3ccccc3)CC1C1OC12 (stereo not drawn): 1.02
- O=C(O)C1CCNCC1: 1.01
- N#CC(C#N)=Cc1ccc(-c2cc(C(F)(F)F)ccc2Cl)o1: 1.01
- Cc1cc(NC(=O)c2c(-c3c(Cl)cccc3Cl)noc2C)c([N+](=O)[O-])cc1C: 0.996
- CC(C)NNC(=O)c1ccncc1: 1.02
- CCCNC1CCc2nc(N)sc2C1 (stereo not drawn): 1.06
- CN1CCc2cccc(Cl)c2CC1: 0.998
- CCCCOC(=O)c1ccccc1C(=O)OCCCC: 0.967
- CC(=O)c1cnn(-c2ccccc2)c1C: 0.848
- Nc1ccc(C(=O)/C(=C\c2cccc([N+](=O)[O-])c2)C(=O)c2ccc(-c3ccccc3)cc2)cc1: 1
- CN1c2ccccc2C(=O)NC1c1ccc([N+](=O)[O-])s1 (stereo not drawn): 0.971
- CCCCOC(=O)c1ccc(N)cc1: 0.889
- CC12NC(=O)NC1(C)NC(=O)N2 (stereo not drawn): 1.04
- O=C(c1ccccc1)c1cc2c(cc1Br)OCCO2: 0.845
- CCCN1CCC[C@H](c2cccc(O)c2)C1: 0.994
- Nc1ccc(N=Nc2ccccc2)c(N)n1: 0.934
- COC(=O)C1=C(C)NC(C)=C(C(=O)OC)C1c1ccc(-c2ccsc2C(=O)OC)o1: 0.898
- COc1ccc2c(c1)c(CC(=O)O)c(C)n2Cc1ccc(F)cc1: 1.01
- COc1ccccc1N=C(N)SCc1ccccc1: 0.928
- O=C(c1ccc(-c2ccccc2)cc1)c1cc2cc([N+](=O)[O-])ccc2o1: 1.01
- COCCCNC(=S)Nc1ccc(C)cc1C: 1.01
- CCCCOC(=O)c1ccccc1C(=O)OCc1ccccc1: 0.957
- CC[N+](CC)(CC)CCOc1cccc(OCC[N+](CC)(CC)CC)c1OCC[N+](CC)(CC)CC: 1.02
- CCCCCCCCCCCCCC(=O)O[C@@H]1[C@@H](C)[C@@]2(O)[C@@H](C=C(CO)C[C@@]3(O)C(=O)C(C)=C[C@@H]23)C2C(C)(C)[C@@]21OC(C)=O (stereo partly drawn): 1.06
- Cc1cccc2c1N(C(=S)Nc1ccccc1Cl)CCC2: 0.93
- COc1cc(-c2coc3cc(OCc4ccccc4)c(OC)c(O)c3c2=O)cc(OCc2ccccc2)c1OC: 0.987
- COC(=O)c1c(-c2c(Cl)cccc2Cl)noc1NC(=O)NN1CCCCC1: 1.01
- CCN(CC)CCOC(=O)c1ccc(N)cc1: 1.03
- COC(=O)c1sccc1NC(=O)C1CC1: 0.97
- CC(/C=N\O)=N/Nc1ccccc1: 1.05
